- TARGET_UNDER_TEST: T1, purified ALK protein (BLitz, Table 20) (Homo sapiens (Human), UniProt Q9UM73 19-1038, limits assumed)
- T1 construct: also called purified ALK proteins
- MEASUREMENT_DESCRIPTION: BLI (BLitz), mAb on Protein A tip, purified ALK in solution
- Procedure: Kinetic measurements of the monovalent affinity of the 96 humanized ALK antibody variants (Ab351-Ab446) were collected. Affinity ranking was performed using a BLitz® System (ForteBio, Menlo Park, Calif.). Humanized anti-ALK antibodies were immobilized at 0.5 mg/mL using Protein A tips. Once baseline stability was ensured, purified ALK proteins at 70 μg/mL were added. The resulting kinetic data were fit to a single binding site equation, from which the quoted monovalent KD values were derived.
pKd: −log10 of the molar value.
ENDPOINT_NAME: pKd

INSERT INTO measurements (binder, assay_value) VALUES
  ('Ab438 (antibody, V domains shown, humanized) VH: EVQLVQSGAEVKKPGTSVKLSCKASGYTFTSYWMHWVRQARGQRLEWIGYIKPSSGYTKYAQKFQERVTLTADKSTSTAYMELSSLRSEDTAVYYCARDYYGSSSWFAYWGQGTLVTVSS VL: EIVMTQSQATMSTSVGERATLSCKASQNVGTNVAWYQQKPGQSPKALIYGASTRATGVPARFSGSGSGTDFTLTISSVEPEDFAVYYCQQYNSYPYMYTFGQGTKLEIK', 6.51),
  ('Ab353 (antibody, V domains shown, humanized) VH: EVQLVQSGAEVKKPGTSVKLSCKASGYTFTSSAMQWVKQAPGQGLEWIGYIKPSSGYTKYNQKFKDKATLTADKSTSTAYMELSSLRSEDTAVYYCARDYYGSSSWFAYWGQGTLVTVSS VL: EIVMTQSPAFLSVTPGEKVTITCKASQNVGTNVAWYQQKPDQAPKALIYSASYRYSGVPSRFSGSGSGTDFTLTISSLEAEDAATYYCQQYNSYPYMYTFGQGTKLEIK', 6.42),
  ('Ab382 (antibody, V domains shown, humanized) VH: EVQLVQSGAEVKKPGASVKLSCKASGYTFTSYWMHWVRQAPGQGLEWIGYIKPSSGYTKYAQKLQGRVTLTADKSTSTAYMELRSLRSDDTAVYYCARDYYGSSSWFAYWGQGTLVTVSS VL: EIVMTQSPAFMSVTVGEKVTITCKASQNVGTNVAWYQQKPDQSPKALIYSASYRYSGVPSRFSGSGSGTDFTLTISSLEAEDAATYYCQQYNSYPYMYTFGQGTKLEIK', 6.85);
